target_under_test: T1, rat serum albumin (rat, UniProt P02770 25-608)
T1 construct: also called RSA
protocol_notes: SPR, single cycle kinetics, pH 7.4
Catalogue of Kd readings, one per entry.
Express your answer in nM, writing the number without its unit.

Query string: Recorded Kd for M79 sdAb (VHH, also called M79 VHH) VHH: QVKLEESGGGLVQAGGSLKLSCAASGSTFSSSSVGWYRQAPGQQRELVAAITSGGSTNTADSVKGRFTMSRDNAKNTVYLQMRDLKPEDTAVYYCNVAGRNWVPISRYSPGPYWGQGTQVTVSS , please?
Result string: 12.6

More entries:
Query string: Reported Kd for R11-H5 (VHH) VHH: QVQLVESGGGLVQPGGSLRLSCAGPGFLLRSNTMGWYRQAPGKERELVAFIRPSGLTNYNDAVQGRFTISRDNSKNTLYLQMNSLRAEDTAVYYCHTRPPFQRDSWGQGTLVTVSS : what is it?
Result string: 196
